# target of assay: PI3Kβ
# Sequence (Q8BTI9 whole entry): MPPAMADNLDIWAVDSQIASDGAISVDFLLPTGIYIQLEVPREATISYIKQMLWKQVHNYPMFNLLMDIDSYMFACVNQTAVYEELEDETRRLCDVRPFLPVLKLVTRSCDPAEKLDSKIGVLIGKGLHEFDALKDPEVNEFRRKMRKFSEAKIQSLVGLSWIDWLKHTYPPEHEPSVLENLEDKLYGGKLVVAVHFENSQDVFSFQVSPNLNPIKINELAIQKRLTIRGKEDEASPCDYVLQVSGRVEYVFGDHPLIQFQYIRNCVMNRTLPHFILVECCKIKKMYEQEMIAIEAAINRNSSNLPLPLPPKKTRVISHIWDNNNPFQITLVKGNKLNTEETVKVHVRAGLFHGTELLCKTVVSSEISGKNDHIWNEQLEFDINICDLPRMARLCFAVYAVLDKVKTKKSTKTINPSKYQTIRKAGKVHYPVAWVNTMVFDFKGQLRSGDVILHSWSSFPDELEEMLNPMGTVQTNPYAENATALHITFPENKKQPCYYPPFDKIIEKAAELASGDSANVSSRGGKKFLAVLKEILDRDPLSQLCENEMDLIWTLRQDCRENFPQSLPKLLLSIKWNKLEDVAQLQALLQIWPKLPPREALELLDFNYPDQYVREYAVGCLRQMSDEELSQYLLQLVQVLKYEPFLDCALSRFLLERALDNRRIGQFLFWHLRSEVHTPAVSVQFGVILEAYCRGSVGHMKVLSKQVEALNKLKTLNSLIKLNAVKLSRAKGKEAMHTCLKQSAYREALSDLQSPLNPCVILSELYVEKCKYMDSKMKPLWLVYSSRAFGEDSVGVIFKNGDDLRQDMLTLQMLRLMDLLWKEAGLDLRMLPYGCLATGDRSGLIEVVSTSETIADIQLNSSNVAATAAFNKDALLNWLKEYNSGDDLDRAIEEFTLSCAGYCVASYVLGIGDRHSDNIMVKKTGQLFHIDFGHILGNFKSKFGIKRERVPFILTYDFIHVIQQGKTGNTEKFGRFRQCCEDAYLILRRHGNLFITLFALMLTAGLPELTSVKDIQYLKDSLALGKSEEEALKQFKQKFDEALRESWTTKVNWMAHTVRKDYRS
# assay info: PI3 Kinase HTRF assay, PI3Kβ
# Assay type: biochemical, human
# setup conditions: 10 μM PIP2, 10 μM ATP; 'Greater than 10 μM' and 'Greater than 1 μM to 10 μM'; read-out: PI3K β IC50
experimental endpoint: IC50

PI3Kβ data for C[C@H](Nc1nc(N)nc2cccnc12)c1cc2cccc(-c3cnc4ccccc4c3)c2c(=O)n1-c1ccccc1 [Compound I-82] ; its IC50: 1 to 10 µM

PI3Kβ data for COc1ccc(-c2cccc3cc([C@H](C)Nc4ncnc5cccnc45)n(-c4ccccc4)c(=O)c23)cn1 [Compound I-48] ; its IC50: > 10 µM

PI3Kβ data for C[C@H](Nc1ncnc2cccnc12)c1cc2cccc(C(F)(F)F)c2c(=O)n1-c1cccc(F)c1 [III-12] ; its IC50: 1 to 10 µM

PI3Kβ data for C[C@@H](Nc1ncnc2cc(F)c(F)cc12)c1cc2cccc(Cl)c2c(=O)n1-c1ccccc1 [IV-3] ; its IC50: > 10 µM

PI3Kβ data for COc1ncc(-c2cccc3cc([C@H](C)Nc4nc(N)nc5cccnc45)n(-c4ccccc4)c(=O)c23)cn1 [Compound I-57] ; its IC50: > 10 µM

PI3Kβ data for C[C@H](Nc1nc(N)ncc1C(F)(F)F)c1cc2cccc(C(F)(F)F)c2c(=O)n1-c1cccc(F)c1 [III-46] ; its IC50: 1 to 10 µM

PI3Kβ data for COc1ncc(-c2cccc3cc([C@H](C)Nc4cc(O)nc5cccnc45)n(-c4ccccc4)c(=O)c23)cn1 [Compound I-99] ; its IC50: > 10 µM
